Reference for the values: patent US5831003A

biological target: α-thrombin (Homo sapiens); construct: α-Thrombin is the active form of the plasma serine protease zymogen, prothrombin; purchased Enzyme Research Labs (South Bend, Ind.); assay: Confirmatory binding assay in column chromatographic format, peptides synthesized on A-Totda-Toyopearl; conditions: 200 μg α-thrombin applied; integration of A280
Ends that are not written are not given here.
measured.metric: Absorbance, 280 nm 1M NaCl Eluate

Worked examples follow.
| substance | result |
| --- | --- |
| HQLWGSH | np |
| ERPYHG (not fully specified (C-terminus)) [peptide synthesized on A-Totda-Toyopearl resin] | 0.69 |
| ERPYKG (not fully specified (C-terminus)) [peptide synthesized on A-Totda-Toyopearl resin] | 0.26 |
| VTPFAV (not fully specified (C-terminus)) [peptide synthesized on A-Totda-Toyopearl resin] | np |
| VFPYVW (not fully specified (C-terminus)) [peptide synthesized on A-Totda-Toyopearl resin] | np |

Query: Fill blank: measured Absorbance, 280 nm 1M NaCl Eluate of the substance GFRNGP [GERNGP] is ____.
Response: 0.13

Query: Fill blank: measured Absorbance, 280 nm 1M NaCl Eluate of the substance SVRPFL (not fully specified (C-terminus)) [peptide synthesized on A-Totda-Toyopearl resin] is ____.
Response: np

Query: Fill blank: measured Absorbance, 280 nm 1M NaCl Eluate of the substance `PFAPTL` is ____.
Response: np

###

biological target: α-thrombin (Homo sapiens); construct: α-Thrombin is the active form of the plasma serine protease zymogen, prothrombin; purchased Enzyme Research Labs (South Bend, Ind.); experiment: Confirmatory binding assay in column chromatographic format, peptides synthesized on A-Totda-Toyopearl; settings: 100 μg α-thrombin applied; integration of A280
Ends that are not written are not given here.
measured.metric: Absorbance, 280 nm 1M NaCl Eluate

Worked examples follow.
| substance | Absorbance, 280 nm 1M NaCl Eluate |
| --- | --- |
| LTPFAV (not fully specified (C-terminus)) [peptide synthesized on A-Totda-Toyopearl resin] | np |
| LFAPTL | np |
| VTPFAV (not fully specified (C-terminus)) [peptide synthesized on A-Totda-Toyopearl resin] | np |
| HQLWGSH | np |
| GFRKGP (not fully specified (C-terminus)) [peptide synthesized on A-Totda-Toyopearl resin] | 0.15 |

Attention now turns to another entry.
Query: Fill blank: measured Absorbance, 280 nm 1M NaCl Eluate of the substance RQLWQSH [RQLWGSH, variant of QLWGSH with added amino-terminal arginine, on A-Totda-Toyopearl resin] is ____.
Response: np

###

Molecular target: α-thrombin (Homo sapiens)
Construct: α-Thrombin is the active form of the plasma serine protease zymogen, prothrombin; purchased Enzyme Research Labs (South Bend, Ind.)
Experiment: Confirmatory binding assay in column chromatographic format, peptides synthesized on A-Totda-Toyopearl
Conditions: 200 μg α-thrombin applied; integration of A280
Protocol: Confirmatory binding assays were performed in a column chromatographic format on a microbore HPLC using individual peptide sequences synthesized directly onto the Toyopearl 650 M Chelate resin which had been modified with Totda followed by an alanine residue (A-Totda-Toyopearl), at a final substitution density of 0.2 mmol/g resin. […] The endpoint was a dose-dependent increase in the acid eluate in the thrombin contactings, and quantification was by integration of the absorbance at 280 nm.
Ends that are not written are not given here.
measured.metric: Absorbance, 280 nm 1M NaCl Eluate

| substance | target.entity | Absorbance, 280 nm 1M NaCl Eluate |
| --- | --- | --- |
| VFPYAW (not fully specified (C-terminus)) [peptide synthesized on A-Totda-Toyopearl resin] | α-thrombin (Homo sapiens) | np |
| RQLWQSH [RQLWGSH, variant of QLWGSH with added amino-terminal arginine, on A-Totda-Toyopearl resin] | α-thrombin (Homo sapiens) | np |
| VFPYGW (not fully specified (C-terminus)) [peptide synthesized on A-Totda-Toyopearl resin] | α-thrombin (Homo sapiens) | np |
| FEPANP (not fully specified (C-terminus)) [peptide synthesized on A-Totda-Toyopearl resin] | α-thrombin (Homo sapiens) | 0.10 |
| PFPYAW (not fully specified (C-terminus)) [peptide synthesized on A-Totda-Toyopearl resin] | α-thrombin (Homo sapiens) | np |

Query: Fill blank: measured Absorbance, 280 nm 1M NaCl Eluate of the substance LTPFAV (not fully specified (C-terminus)) [peptide synthesized on A-Totda-Toyopearl resin] is ____.
Response: np

Query: Fill blank: measured Absorbance, 280 nm 1M NaCl Eluate of the substance GFRKGP (not fully specified (C-terminus)) [peptide synthesized on A-Totda-Toyopearl resin] is ____.
Response: 0.25

Query: Fill blank: measured Absorbance, 280 nm 1M NaCl Eluate of the substance PFPYVW (not fully specified (C-terminus)) [peptide synthesized on A-Totda-Toyopearl resin] is ____.
Response: np

Query: Fill blank: measured Absorbance, 280 nm 1M NaCl Eluate of the substance YTPFAV (not fully specified (C-terminus)) [peptide synthesized on A-Totda-Toyopearl resin] is ____.
Response: np

Query: Fill blank: measured Absorbance, 280 nm 1M NaCl Eluate of the substance PFPYGW (not fully specified (C-terminus)) [peptide synthesized on A-Totda-Toyopearl resin] is ____.
Response: np

Query: Fill blank: measured Absorbance, 280 nm 1M NaCl Eluate of the substance `LFAPTL` is ____.
Response: np
